Assay: direct calcium signal without carbachol stimulation – cell-based, HEK293 M3R, non-induced, no carbachol, second counter-screen, artefact control for RGS4 inhibitor project, confirmation (AID 493001)
Details: Fluo-4 calcium, at 10 µM, normalised: buffer wells 0%, carbachol wells 100%
The campaign covered roughly 1,900 compounds. About 430 (23%) were called active.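 How the source made its calls: active means duplicate-averaged calcium rise in uninduced cells above buffer wells' mean plus 5 SD; inactive means the rest.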 Not all results are given here.
Please reply with one of these outcomes: active, inactive

Below, 6 compounds whose answers are already recorded.
[
  {
    "compound": "O=C(NCCCc1ccccc1)C1CCC(CNc2c(N3CCCCC3)c(=O)c2=O)CC1 (stereo not given)",
    "class.label": "inactive"
  },
  {
    "compound": "CCOC(=O)[C@@H]1[C@H]2COc3ccc(Br)cc3[C@H]2N2C(=O)N(c3ccc(Cl)cc3)C(=O)[C@@]12C",
    "class.label": "inactive"
  },
  {
    "compound": "COc1cc(/C=C2/SC(=S)N(Cc3ccccc3)C2=O)cc(OC)c1O",
    "class.label": "active"
  },
  {
    "compound": "CCCCOC(=O)CNc1nnc(SCC(=O)OCC)[nH]c1=O",
    "class.label": "inactive"
  },
  {
    "compound": "Cc1nc(Nc2ccc(S(=O)(=O)N3CCCC3)cc2)c2nnn(Cc3ccccc3)c2n1",
    "class.label": "inactive"
  },
  {
    "compound": "COc1ccc(C(C[N+](=O)[O-])n2nc(C)cc2C)cc1 (stereo not given)",
    "class.label": "active"
  }
]

Each compound tested received a call. Report the one for COc1ccc(-c2csc(Nc3ccc(O)cc3)n2)cc1 .
inactive

Each compound tested received a call. Report the one for CC(C)c1nc(SCC(=O)Nc2cccc(C(=O)O)c2)c2c3c(sc2n1)CCCC3 .
inactive

Each compound tested received a call. Report the one for COc1ccccc1C1C(C#N)=C(N)Oc2c1c(-c1ccccc1)nn2-c1ccccc1 (stereo not given) .
active

Each compound tested received a call. Report the one for Cc1ccc(-c2c3c(=O)n(C)c(=O)n(C)c3cn2-n2cnnc2)cc1 .
inactive
